These data points were gathered from paper PMC11884936.

- experimental-system: T1, Pellino 1 FHA (PELI1 residues 13-273) (human, UniProt Q96FA3 13-273)
- T1 construct: Cloned into pGEX-6P1; same preparation for ITC and crystallography by the methods; also called PELI1 (13–273); N-terminal PELI1 fragment; source: E. coli BL21 (DE3), purified (Glutathione Sepharose, 3C cleavage, gel filtration); not shown: GST, N-terminal, cleaved
- T1 sequence (looked up): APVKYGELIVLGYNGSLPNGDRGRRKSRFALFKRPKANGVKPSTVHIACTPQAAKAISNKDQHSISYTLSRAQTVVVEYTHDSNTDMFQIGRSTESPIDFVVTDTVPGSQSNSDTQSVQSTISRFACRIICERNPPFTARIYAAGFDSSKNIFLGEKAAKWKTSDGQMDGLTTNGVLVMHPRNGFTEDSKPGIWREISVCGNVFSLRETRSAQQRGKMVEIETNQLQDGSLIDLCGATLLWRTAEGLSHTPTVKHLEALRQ
- assay-explanation: ITC; peptide in the syringe (typically 160 μM), protein in the cell (16 μM); 25 mM HEPES pH 7.0, 200 mM NaCl, 1 mM TCEP; single-site binding model
- cond: both partners purified
Square brackets hold non-standard residues; d marks the D form. pT = C[C@@H](OP(=O)(O)O)[C@H](N)C(=O)O
endpoint-label: stoichiometry N

Known stoichiometry N results, listed for orientation:
input: Value lookup for stoichiometry N; key = Ac-AYDLQA[pT]QCFA-NH2 (SMILES CC(=O)N[C@@H](C)C(=O)N[C@@H](Cc1ccc(O)cc1)C(=O)N[C@@H](CC(=O)O)C(=O)N[C@@H](CC(C)C)C(=O)N[C@@H](CCC(N)=O)C(=O)N[C@@H](C)C(=O)N[C@H](C(=O)N[C@@H](CCC(N)=O)C(=O)N[C@@H](CS)C(=O)N[C@@H](Cc1ccccc1)C(=O)N[C@@H](C)C(N)=O)[C@@H](C)OP(=O)(O)O, human MDC1, stretch around T699 with alanine at pT+4; source: synthetic peptide) [MDC1-pT699 phosphopeptide for ITC (AYDLQApTQCFA)]
output: 0.36

input: Reported stoichiometry N, binder Ac-AYEVLA[pT]QPFC-NH2 (SMILES CC(=O)N[C@@H](C)C(=O)N[C@@H](Cc1ccc(O)cc1)C(=O)N[C@@H](CCC(=O)O)C(=O)N[C@H](C(=O)N[C@@H](CC(C)C)C(=O)N[C@@H](C)C(=O)N[C@H](C(=O)N[C@@H](CCC(N)=O)C(=O)N1CCC[C@H]1C(=O)N[C@@H](Cc1ccccc1)C(=O)N[C@@H](CS)C(N)=O)[C@@H](C)OP(=O)(O)O)C(C)C, two N-terminal residues that are not the MDC1 residues at this place; human MDC1, stretch around T752; Natural stretch with two added N-terminal residues (AY); source: synthetic peptide) [MDC1-pT752 phosphopeptide for ITC (AYEVLApTQPFC)] : ____
output: 0.74

input: Any idea what stoichiometry N was measured for Ac-AYSSAS[pT]FLYP-NH2 (SMILES CC(=O)N[C@@H](C)C(=O)N[C@@H](Cc1ccc(O)cc1)C(=O)N[C@@H](CO)C(=O)N[C@@H](CO)C(=O)N[C@@H](C)C(=O)N[C@@H](CO)C(=O)N[C@H](C(=O)N[C@@H](Cc1ccccc1)C(=O)N[C@@H](CC(C)C)C(=O)N[C@@H](Cc1ccc(O)cc1)C(=O)N1CCC[C@H]1C(N)=O)[C@@H](C)OP(=O)(O)O, two N-terminal residues as in the other ITC peptides; IRAK1, stretch around T141 with tyrosine at pT+3; also called IRAK-pT141(+3Y); source: synthetic peptide) [IRAK1-pT141(+3Y) phosphopeptide (AYSSASpTFLYP)] ?
output: 0.7

Here's the next entry for you.
input: // stoichiometry N lookup, key: Ac-AYEDEP[pT]QAFA-NH2 (SMILES CC(=O)N[C@@H](C)C(=O)N[C@@H](Cc1ccc(O)cc1)C(=O)N[C@@H](CCC(=O)O)C(=O)N[C@@H](CC(=O)O)C(=O)N[C@@H](CCC(=O)O)C(=O)N1CCC[C@H]1C(=O)N[C@H](C(=O)N[C@@H](CCC(N)=O)C(=O)N[C@@H](C)C(=O)N[C@@H](Cc1ccccc1)C(=O)N[C@@H](C)C(N)=O)[C@@H](C)OP(=O)(O)O) [MDC1-pT719 phosphopeptide for ITC (AYEDEPpTQAFA)]
output: 0.78
